assay: Determination of the amyloidogenic character of the peptides by Thioflavin T fluorescence; type: physicochemical; conditions: 800 μM peptide; ThT fluorescence normalized to 1p = 100% (16p and 9tp: 288 μM per FIG. 3 legend)
Below: a set of entries, each annotated with reported % fluorescence.
readoutType: % fluorescence (%)

substance: VVIQYK (Ac-VVIQYK-NH2) [2tp]
numericResult: 2.9

substance: IKQVYV (Ac-IKQVYV-NH2) [5p]
numericResult: 1.1

substance: KVQIVY (Ac-KVQIVY-NH2) [10p]
numericResult: 3.2

substance: VQVKYI (Ac-VQVKYI-NH2) [21p]
numericResult: 19.9

substance: KYIQVV (Ac-KYIQVV-NH2) [2p]
numericResult: 2.8

substance: KVQYVI (Ac-KVQYVI-NH2) [14p]
numericResult: 4.4

substance: IYVQKV (Ac-IYVQKV-NH2) [9p]
numericResult: 2.1

substance: KYVIQV (Ac-KYVIQV-NH2) [15p]
numericResult: 3.9

substance: QKYIVV (Ac-QKYIVV-NH2) [8p]
numericResult: 1.9

substance: IQYVVK (Ac-IQYVVK-NH2) [8tp]
numericResult: 17.5

substance: QVIKYV (Ac-QVIKYV-NH2) [23p]
numericResult: 0.8

substance: KQIVYV (Ac-KQIVYV-NH2) [20p]
numericResult: 1.3

substance: YIVVQK (Ac-YIVVQK-NH2) [13p]
numericResult: 2.7

substance: VVQKYI (Ac-VVQKYI-NH2) [6p]
numericResult: 0.2

###

test: Determination of the aggregative character of the peptides by sedimentation; format: physicochemical; settings: sedimentation, Garnier-Delamarche representation
readoutType: aggregative character (in words)

substance: YIVVQK (Ac-YIVVQK-NH2) [13p]
result: weakly aggregative
//
substance: IKQVYV (Ac-IKQVYV-NH2) [5p]
result: weakly aggregative
//
substance: KVQYVI (Ac-KVQYVI-NH2) [14p]
result: weakly aggregative

###

experiment: Determination of the amyloidogenic character of the peptides by Thioflavin T fluorescence; format: physicochemical; settings: 800 μM peptide; ThT fluorescence normalized to 1p = 100% (16p and 9tp: 288 μM per FIG. 3 legend)
Rule: measured % fluorescence below 2% gets T; anything equal to or greater than 2% gets F.

substance: VQKIYV (Ac-VQKIYV-NH2) [4p]
group: T
--
substance: VQVYKI (Ac-VQVYKI-NH2) [22p]
group: F
--
substance: VKVYIQ (Ac-VKVYIQ-NH2) [11p]
group: F
--
substance: VVIKYQ (Ac-VVIKYQ-NH2) [3tp]
group: T
--
substance: VKVIYQ (Ac-VKVIYQ-NH2) [7p]
group: T
--
substance: VQYVIK (Ac-VQYVIK-NH2) [5tp]
group: F
--
substance: QKVVYI (Ac-QKVVYI-NH2) [18p]
group: F
--
substance: QKVYIV (Ac-QKVYIV-NH2) [19p]
group: T
--
substance: YQVIVK (Ac-YQVIVK-NH2) [17p]
group: F
--
substance: VKYQVI (Ac-VKYQVI-NH2) [3p]
group: T
--
substance: VQIKYV (Ac-VQIKYV-NH2) [0tp]
group: F

###

test: Determination of the amyloidogenic character of the peptides by Thioflavin T fluorescence; format: physicochemical; details: ThT fluorescence, Garnier-Delamarche representation

substance: VQYVIK (Ac-VQYVIK-NH2) [5tp]
amyloidogenic character (in words): amyloidogenic
//
substance: IKQVYV (Ac-IKQVYV-NH2) [5p]
amyloidogenic character (in words): weakly amyloidogenic
//
substance: YQIVVK (Ac-YQIVVK-NH2) [6tp]
amyloidogenic character (in words): weakly amyloidogenic
//
substance: VQVKYI (Ac-VQVKYI-NH2) [21p]
amyloidogenic character (in words): amyloidogenic
//
substance: KVQYVI (Ac-KVQYVI-NH2) [14p]
amyloidogenic character (in words): weakly amyloidogenic
//
substance: YIVVQK (Ac-YIVVQK-NH2) [13p]
amyloidogenic character (in words): weakly amyloidogenic
//
substance: VQKIYV (Ac-VQKIYV-NH2) [4p]
amyloidogenic character (in words): weakly amyloidogenic
//
substance: QVIKYV (Ac-QVIKYV-NH2) [23p]
amyloidogenic character (in words): weakly amyloidogenic
//
substance: IYVQKV (Ac-IYVQKV-NH2) [9p]
amyloidogenic character (in words): weakly amyloidogenic
